test system: E. faecium ATCC 35667
Could you please report measured MIC for the items listed next?
One number for each entry, in µg/mL.

| structureString | uom | MIC |
| --- | --- | --- |
| NCCSCc1nc(SCCN)sc1SC1=C(C(=O)O)N2C(=O)[C@@H](NC(=O)/C(=N\O)c3nc(N)sc3Cl)[C@H]2SC1 | µg/mL | 0.5 |
| N=C(N)NCCSCc1cnccc1SC1=C(C(=O)O)N2C(=O)[C@@H](NC(=O)/C(=N\O)c3nsc(N)n3)[C@H]2SC1 | µg/mL | 0.5 |

Now consider the entry below.
Return MIC measured with E. faecium ATCC 35667 given this compound: NCCSCc1ncsc1SC1=C(C(=O)O)N2C(=O)[C@@H](NC(=O)/C(=N\O)c3cccc(N)n3)[C@H]2SC1 2
